target: Cholinesterase (Equus caballus)
Sequence (P81908 whole entry): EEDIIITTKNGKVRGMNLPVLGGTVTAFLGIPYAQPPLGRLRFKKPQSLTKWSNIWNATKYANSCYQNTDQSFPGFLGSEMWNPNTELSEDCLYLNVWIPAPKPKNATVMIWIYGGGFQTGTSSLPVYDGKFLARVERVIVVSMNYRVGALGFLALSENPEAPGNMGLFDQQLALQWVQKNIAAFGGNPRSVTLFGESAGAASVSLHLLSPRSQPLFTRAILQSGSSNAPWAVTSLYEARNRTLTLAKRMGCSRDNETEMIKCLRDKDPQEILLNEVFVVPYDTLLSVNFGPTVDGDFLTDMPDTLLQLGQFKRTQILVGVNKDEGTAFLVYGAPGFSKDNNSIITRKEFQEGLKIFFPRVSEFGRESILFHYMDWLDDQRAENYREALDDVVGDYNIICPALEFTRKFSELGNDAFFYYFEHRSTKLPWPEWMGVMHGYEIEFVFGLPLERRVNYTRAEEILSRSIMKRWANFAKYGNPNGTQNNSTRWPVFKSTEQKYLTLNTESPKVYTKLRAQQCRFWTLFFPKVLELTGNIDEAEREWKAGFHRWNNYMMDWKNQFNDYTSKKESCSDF
Measured IC50 of individual entries
Respond with the bare value in µM.

Here are 5 compounds together with their reported answers.
test_smiles=O=S(=O)(c1ccccc1)n1ccc2c(N3CCN(CCCCCCNc4c5c(nc6ccccc46)CCCC5)CC3)cccc21 unit=µM meas_value=0.0082
test_smiles=O=S(=O)(c1ccccc1)n1ccc2c(N3CCN(CCCNc4c5c(nc6ccccc46)CCCC5)CC3)cccc21 unit=µM meas_value=0.0142
test_smiles=O=S(=O)(c1ccccc1)n1ccc2c(N3CCN(CCCCCCCCNc4c5c(nc6ccccc46)CCCC5)CC3)cccc21 unit=µM meas_value=0.0124
test_smiles=O=S(=O)(c1ccccc1)n1ccc2c(N3CCN(CCCCCCNCc4ccccc4)CC3)cccc21 unit=µM meas_value=2.38
test_smiles=O=S(=O)(c1ccccc1)n1ccc2c(N3CCN(CCCNCc4ccccc4)CC3)cccc21 unit=µM meas_value=0.608

Q) Enter measured IC50, system Cholinesterase (Equus caballus), for the compound shown: `CN(CCN1CCN(c2cccc3c2ccn3S(=O)(=O)c2ccccc2)CC1)Cc1ccccc1`
A) 1.95

Q) Enter measured IC50, system Cholinesterase (Equus caballus), for the compound shown: `O=S(=O)(c1ccccc1)n1ccc2c(N3CCN(CCCCCNCc4ccccc4)CC3)cccc21`
A) 1.67

Q) Enter measured IC50, system Cholinesterase (Equus caballus), for the compound shown: `O=S(=O)(c1ccccc1)n1ccc2c(N3CCN(CCNC4CCN(Cc5ccccc5)CC4)CC3)cccc21`
A) 10.6

Q) Enter measured IC50, system Cholinesterase (Equus caballus), for the compound shown: `CN(CCCCN1CCN(c2cccc3c2ccn3S(=O)(=O)c2ccccc2)CC1)Cc1ccccc1`
A) 6.22
